biological target: Acetylcholinesterase (Homo sapiens) (UniProt P22303); assay: Acetylcholinesterase (AChE) small molecule antagonists: colormetric cell-based qHTS assay (AID 1347395); conditions: SH-SY5Y cells AChE activity, colorimetric (Ellman); series mostly up to 115 µM; also: nearly all actives have a fitted effect of over 30% in size
Sequence (P22303 whole entry, looked up): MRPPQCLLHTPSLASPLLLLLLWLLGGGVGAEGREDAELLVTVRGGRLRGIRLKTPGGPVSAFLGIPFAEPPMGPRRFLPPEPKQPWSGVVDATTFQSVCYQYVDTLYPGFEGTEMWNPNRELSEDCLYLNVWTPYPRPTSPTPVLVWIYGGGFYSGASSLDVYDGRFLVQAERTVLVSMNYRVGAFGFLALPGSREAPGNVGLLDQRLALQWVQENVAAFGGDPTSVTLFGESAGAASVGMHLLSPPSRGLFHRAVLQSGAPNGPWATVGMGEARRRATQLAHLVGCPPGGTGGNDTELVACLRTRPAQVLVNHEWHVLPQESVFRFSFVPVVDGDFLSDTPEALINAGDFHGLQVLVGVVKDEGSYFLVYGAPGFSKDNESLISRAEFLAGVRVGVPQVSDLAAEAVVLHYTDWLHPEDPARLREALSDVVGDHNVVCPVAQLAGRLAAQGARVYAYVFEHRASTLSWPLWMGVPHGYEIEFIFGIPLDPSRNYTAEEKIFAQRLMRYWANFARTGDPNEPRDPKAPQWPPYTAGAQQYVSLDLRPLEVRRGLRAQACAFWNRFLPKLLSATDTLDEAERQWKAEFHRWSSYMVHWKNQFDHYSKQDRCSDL
Results filed as inconclusive are left out. The source made the active and inactive calls. Calls follow the shape of the full dose curve.
Labels: active, inactive

* O=[N+]([O-])O[C@H]1CO[C@H]2[C@@H]1OC[C@H]2O[N+](=O)[O-] | inactive
* CC(C)OC(=O)Cc1ccccc1 | inactive
* C=CCOCC1CO1 (configuration not stated) | inactive
* O=C1CC[C@@]2(O)[C@H]3Cc4ccc(O)c5c4[C@@]2(CCN3CC2CC2)[C@H]1O5 | inactive
* O=C(Cc1ccccc1)OCCc1ccccc1 | inactive
* CCCN(CCOc1c(Cl)cc(Cl)cc1Cl)C(=O)n1ccnc1 | inactive
* CCOP(=O)(SC(C)CC)N1CCSC1=O (configuration not stated) | inactive
* O=C(CCl)CCl | inactive
* CCOP(=S)(S)OCC | active
* C=CCc1ccc(OC(=O)Cc2ccccc2)c(OC)c1 | inactive
* COC1CC(=C(c2cccs2)c2cccs2)C[N+](C)(C)C1 (configuration not stated) | inactive
* O=C(NC(=O)c1cc(F)c(F)cc1Cl)Nc1cc(F)ccc1N1CCC(C(=O)O)CC1 | inactive
* O=P(OCC(Br)CBr)(OCC(Br)CBr)OCC(Br)CBr (configuration not stated) | inactive
* O=C(O)C(F)(F)C(F)(F)C(F)(F)C(F)(F)C(F)(F)C(F)(F)C(F)(F)C(F)(F)F | inactive
* CCCC(C)(COC(N)=O)COC(=O)NC(C)C (configuration not stated) | inactive
* OC[P+](CO)(CO)CO | inactive
* Cc1nc2ccccc2c(=O)n1-c1ccccc1Cl | inactive
* CCCCNC(=O)OCC#CI | inactive
* CC(C)CCON=O | inactive
* CCOP(=O)(O)C(N)=O | inactive
* C[C@H]1O[C@H](OC2[C@@H](O)[C@@H](O)C(O)[C@H](O)[C@H]2O)[C@@H](N)C[C@@H]1N=C(N)C(=O)O (some centres not stated) | inactive
* C=CC(=O)NC(C)(C)CC(C)=O | inactive
* CCOP(=S)(OCC)SCSc1cc(Cl)ccc1Cl | inactive
* CC(C)(C)OOC(C)(C)CCC(C)(C)OOC(C)(C)C | inactive
* C[N+]1(CCF)[C@@H]2CC[C@H]1CC(OC(=O)C(O)(c1ccccc1)c1ccccc1)C2 (some centres not stated) | inactive
* CCCCCCCCCCCCN(C)C | inactive
* CC(Cl)C(=O)O (configuration not stated) | inactive
